# ASSAYED_SYSTEM: Sulfolobus solfataricus SsoPox variant W263M, SEQ ID NO: 9 (Saccharolobus solfataricus, UniProt Q97VT7, W263M)
# Construct: made in house; host or cells: E. coli BL21(DE3)-pGro7/GroEL
# Assay type: biochemical
REPORTED_METRIC: Enhancement/wt
The answer should be written as a number, with no unit following it.

Entry CCCCCCCC1CCC(=O)O1 (stereo not shown) [Undecanoic-γ-lactone, undecanoic-γ-lactone] has what Enhancement/wt?
5.4

Quick one: Enhancement/wt of CCCCCCCCCC(=O)CC(=O)N[C@H]1CCOC1=O [3-oxo-C12 AHL] ?
0

Requested field: Enhancement/wt. Item: CCCCCCCC(=O)CC(=O)N[C@H]1CCOC1=O [3-oxo-C10 AHL]
0

What does the record list as Enhancement/wt for CCCCCCC1CCCC(=O)O1 (stereo not shown) [Undecanoic-δ-lactone, undecanoic-δ-lactone] ?
5.6

###

Exercise: for every item that follows, state its recorded kcat/KM.

Which measured kcat/KM belongs to CCCCCCCC1CCC(=O)O1 (stereo not shown) [Undecanoic-γ-lactone, undecanoic-γ-lactone] , tested on Sulfolobus solfataricus SsoPox, wild type (wt), SEQ ID NO: 3 (Saccharolobus solfataricus)?
2.36 (±0.38)×10^3 M^−1s^−1

Item: CCCCCCC1CCCC(=O)O1 (stereo not shown) [Undecanoic-δ-lactone, undecanoic-δ-lactone] Test system: Sulfolobus solfataricus SsoPox, wild type (wt), SEQ ID NO: 3 (Saccharolobus solfataricus) Read-out: kcat/KM Value: ?
6.72(±2.54)×10^4 M^−1s^−1

Query kcat/KM on Sulfolobus solfataricus SsoPox, wild type (wt), SEQ ID NO: 3 (Saccharolobus solfataricus) for CCCCCCCC(=O)CC(=O)N[C@H]1CCOC1=O [3-oxo-C10 AHL]
3.16(±0.40)×10^4 M^−1s^−1

Report kcat/KM for CCCCCCCCCC(=O)CC(=O)N[C@H]1CCOC1=O [3-oxo-C12 AHL] tested on Sulfolobus solfataricus SsoPox, wild type (wt), SEQ ID NO: 3 (Saccharolobus solfataricus).
2.96(±0.99)×10^3 M^−1s^−1

###

# ASSAYED_SYSTEM: Sulfolobus solfataricus SsoPox variant W263L, SEQ ID NO: 11 (Saccharolobus solfataricus, UniProt Q97VT7, W263L)
# Construct: made in house; host or cells: E. coli BL21(DE3)-pGro7/GroEL
# Assay type: biochemical
REPORTED_METRIC: Enhancement/wt
Please respond with just the number, no unit label.

Quick check: Enhancement/wt of CCCCCCCC1CCC(=O)O1 (stereo not shown) ?
4.4

Give the measured Enhancement/wt of CCCCCCCC(=O)CC(=O)N[C@H]1CCOC1=O .
0

Looking for the measured Enhancement/wt of CCCCCCCCCC(=O)CC(=O)N[C@H]1CCOC1=O , can you help?
0

Field request: Enhancement/wt | item: CCCCCCC1CCCC(=O)O1 (stereo not shown)
3.3
